Reference source for all entries: PubChem BioAssay (NCI)

Please provide measured growth for the entries that follow.
- Test system: KM12 colon
- assaySummary: NCI-60 one-dose screen, 48 h (100 = growth as untreated, 0 = no growth, -100 = all killed)
- assaySetup: 10 µM
This is part of a sample that, as a whole, favours compounds with a hit. Of some 83,000 tested, about 20% had one in any assay. Activity calls are given as the source filed them. How the source made its calls: active means growth percent below 10; inactive means the rest.

Ask: Using the record for COc1cccc(C(=O)N(c2ccc(F)c(F)c2)C(C(=O)NC(C)(C)C)c2cc3c(C)cc(C)cc3nc2Cl)c1 (stereo not drawn) , report its growth.
Result: 60.2% (inactive)

Ask: // returns reported growth for input O=C(NCc1cn(Cc2cccc(Oc3ccccc3)c2)nn1)c1cccnc1Nc1ccccc1
Result: 29.5% (inactive)

Ask: Give the measured growth of CCOC(=O)c1cc2c(n1Cc1cccc(OC)c1)-c1oncc1CC2 .
Result: 32.5% (inactive)

Ask: For Cc1nc2sccn2c1-c1csc(Nc2cccc(Cl)c2C)n1 , what is its reported growth?
Result: 50.8% (inactive)

Ask: State the recorded growth for this entry: C=CCn1c(C)nc2cc(Nc3nc(Nc4ccc5nc(C)n(CC=C)c5c4)c4ccccc4n3)ccc21
Result: -93.2% (active)

Ask: Name the reported growth value associated with the compound NS(=O)(=O)c1ccc(N2N=C(c3ccc(-c4ccccc4)cc3)CC2c2ccc(Cl)cc2)cc1 (stereo not drawn)
Result: 68.6% (inactive)

Ask: Need growth of O=c1cc(CSc2nnc(-c3ccccc3)n2-c2ccc(F)cc2)c2ccc3ccccc3c2o1 , thanks.
Result: 95.8% (inactive)

Ask: Would you kindly share the measured growth for COc1ccc(-c2oncc2-c2cc(OC)c3c(c2)OCO3)cc1 ?
Result: 31.3% (inactive)

Ask: Report growth for CCCCCCCCCCCCCC[n+]1ccc(C)cc1 please.
Result: -97.9% (active)

Ask: May I ask what growth has been recorded for COc1cc(/C=C/C(=O)c2cc(-c3ccccc3)ccc2O)cc(OC)c1OC ?
Result: 78.6% (inactive)

Ask: Fill in: growth of COc1cc(C2C(C#N)=C(c3c[nH]c4ccccc34)Nc3nc(N)[nH]c(=O)c32)cc(OC)c1OC (stereo not drawn) is ___
Result: 94.1% (inactive)

Ask: Which value of growth has been reported for O=C(NCCCl)c1cc(Cl)cc(Cl)c1 in the records?
Result: 107% (inactive)

Ask: Data request, read-out growth, for NC(=O)C1CCCN(Cc2c[nH]c3ccccc23)C1 (stereo not drawn)
Result: 102% (inactive)

Ask: Form field: reported growth of COc1ccc(-c2csc(-c3cc(Cl)cc(Cl)c3Cl)n2)cc1
Result: 86.9% (inactive)

Ask: Consider the compound shown here: O=C(N/N=C/c1ccccc1O)c1ccccc1 What is its recorded growth?
Result: 35.4% (inactive)

Ask: Sample O=C(/C=C/c1nnc2n(Cc3ccccc3)c(=O)c3c4c(sc3n12)CCCC4)c1ccccc1 — what was its growth?
Result: 55.2% (inactive)

Ask: Please look up its growth: COc1ccc(S(=O)(=O)Nc2ccc(OCc3nnc(-c4ccc(Cl)cc4)o3)c(F)c2)cc1
Result: 56.3% (inactive)

Ask: Given the entry CCCCCCOc1ccc(/C=C/C(=O)c2ccc(B(O)O)cc2)cc1 , report its measured growth.
Result: 85.4% (inactive)

Ask: I would be grateful if you could share the reported growth for O=c1oc2cc(OS(=O)(=O)C3CC3)ccc2c2c1CCCCCC2 .
Result: 77.8% (inactive)

Ask: // lookup growth for C=CCn1ccc(=O)nc1SC
Result: 104% (inactive)

Ask: growth lookup needed for Oc1ccc(/C=N\Nc2ccccn2)c(O)c1 , thanks.
Result: 38.4% (inactive)

Ask: Which value of growth has been reported for O=C1/C(=C/c2ccc(O)cc2O)N=C2SCCCN12 in the records?
Result: 91.3% (inactive)

Ask: Query: growth; subject: CCOC(=O)c1ccc(N(C=O)CCC(=O)CCl)cc1
Result: 4.98% (active)

Ask: Fill blank: measured growth of the compound COc1cc(/C=C2\C(=O)Nc3cc(C)c(O)cc32)cc(OC)c1OC is ____.
Result: 21.9% (inactive)

Ask: Could you share which growth value was measured for CCCCCN(CCCCC)C(C)C(O)c1ccc2cc(Cl)c3ccccc3c2c1 (stereo not drawn) ?
Result: 103% (inactive)

Ask: What value of growth has been reported for the following compound? O=C(O)CN1C(=O)C=CC1=O
Result: 102% (inactive)

Ask: What value of growth has been reported for the following compound? O=S(=O)(NC1c2ccccc2Oc2ccccc21)c1cc(Cl)ccc1Cl
Result: 102% (inactive)

Ask: # input compound: O=c1[nH]c(=O)n(C2C[C@@H](O)[C@@H](CO)O2)cc1F (stereo partly drawn) ; wanted: its growth
Result: 33.4% (inactive)

Ask: Please look up its growth: FC(F)(F)c1ccc(-c2cnc(Cl)nc2NC2CCCCCC2)cc1
Result: 16.5% (inactive)

Ask: Report growth for COc1cc(OC)cc(-c2ccc(-c3ccc(C(=N)N)cn3)o2)c1 please.
Result: -11.2% (active)

Ask: Requested field: growth. Item: CC(C)/C=N/NC(N)=S
Result: 112% (inactive)

Ask: Field request: growth | item: CCc1nn2c(-c3ccccc3)c(-c3cc(OC)c(OC)c(OC)c3)nc2s1
Result: 94.7% (inactive)

Ask: Looking for the measured growth of COc1cc(/C=C/C(=O)c2cc(-c3ccc(C(F)(F)F)cc3)ccc2O)cc(OC)c1OC , can you help?
Result: 69.2% (inactive)

Ask: Quick one: growth of COc1cc(-c2c(C#N)c(N)n3c(nc4ccccc43)c2C#N)cc(Br)c1OC ?
Result: 21.1% (inactive)

Ask: Requested field: growth. Item: C[C@]12CC[C@H]3[C@@H](CCC4=CC(=O)CC[C@@]43C)[C@@H]1CC[C@@H]2c1csc(N)n1
Result: 50.8% (inactive)

Ask: Find the recorded growth belonging to CCc1ccc(Nc2cc(C)nc3nc(C)nn23)cc1 and report it.
Result: 3.49% (active)

Ask: Endpoint output: growth of CCOC(=O)c1cc(-c2ccccc2)nc(N)n1 . Value?
Result: 110% (inactive)

Ask: Give the measured growth of CC[C@@]1(C(N)=O)CC2C=CC1C2 (stereo partly drawn) .
Result: 119% (inactive)

###

- System: U251 CNS
- assaySummary: NCI-60 one-dose screen, 48 h (100 = growth as untreated, 0 = no growth, -100 = all killed)
- assaySetup: 10 µM
This is part of a sample that, as a whole, favours compounds with a hit. Of some 83,000 tested, about 20% had one in any assay.
# binarize growth: threshold 50% inclusive, high side satisfied, low side not satisfied

Ask: Determine whether measured growth meets or exceeds 50% for CCOCC[P+](c1ccccc1)(c1ccccc1)c1ccccc1
Result: not satisfied

Ask: Item CCc1ccc(-c2nnc(COc3ccc(-c4nc5ccccc5[nH]4)cc3OC)o2)cc1 with growth of 50% or above?
Result: not satisfied

Ask: Kindly determine if growth recorded for CCCCCCCCCCCCCCCC(=O)N1CCN(C)CC1 is above or exactly 50%.
Result: satisfied

Ask: Exam item: decide whether the reported growth for O=C(NC1CCCC1)c1ccc(N2CCC(NCc3cccc(C(F)(F)F)c3)CC2)cc1 is at least 50%.
Result: satisfied

Ask: Check the entry CCCCCCCCCCCCc1ccc(C(=O)/C=C/C(=O)O)cc1 : does growth equal or exceed 50%?
Result: satisfied

Ask: Form field: growth at least 50%? Entry: Cc1ccc(S(=O)(=O)Nc2cccc3[nH]c(C(F)(F)F)nc23)cc1
Result: not satisfied

Ask: Can COc1ccccc1CNCCCN1C(=O)c2ccc3c4c(ccc(c24)C1=O)C(=O)N(CCCNCCNCCCN)C3=O be said to have growth at or above 50%?
Result: not satisfied

Ask: Given COc1cccc2c1C(=O)c1c(O)c3c(c(O)c1C2=O)C[C@@](O)(C(=O)COC(=O)c1cccnc1)C[C@@H]3OC1CC(N)C(O)C(C)O1 (stereo partly drawn) , state whether its growth is at least 50%.
Result: not satisfied

Ask: Given the entry COc1ccc(C2C=C(c3ccc(Cl)cc3)N=C3SC=CN32)c(Br)c1 (stereo not drawn) , answer whether its growth meets or surpasses 50%.
Result: satisfied

Ask: Please indicate if the recorded growth for NC1CCC(Nc2nc(NCc3cc(Cl)ccc3O)c3ncn(C4CCCC4)c3n2)CC1 (stereo not drawn) meets or exceeds 50%.
Result: not satisfied

Ask: Could you verify whether the entry COc1cc(C2C=C(c3ccc(Cl)cc3)N=C3SC(C)=CN32)cc(OC)c1OC (stereo not drawn) shows growth of no less than 50%?
Result: satisfied

Ask: Is it the case that Cc1cccc2c1O/C(=C\c1ncc([N+](=O)[O-])n1C)C2=O has growth reaching or exceeding 50%?
Result: not satisfied

###

- System: NCI-H522 lung
- assaySummary: NCI-60 one-dose screen, 48 h (100 = growth as untreated, 0 = no growth, -100 = all killed)
- assaySetup: 10 µM
This is part of a sample that, as a whole, favours compounds with a hit. Of some 83,000 tested, about 20% had one in any assay.
Record form. Attribute: growth. Fill in for each entry.
Please reply with the bare figure in % and do not write the unit itself.

Ask: For the compound O=C(N/N=c1/ccoc2cccnc12)N1CCN(c2ncccn2)CC1 , what growth is on record?
Result: 9.96

Ask: Name the recorded growth for Cc1cc(Nc2cccc(F)c2)nc(NCc2ccccc2)n1 .
Result: 6.89

Ask: # input compound: O=S(=O)(NC1c2ccccc2Oc2ccccc21)c1ccccc1 ; wanted: its growth
Result: 31.3

Ask: growth for CCCCCCCC/C=C/CCCCCCCCC1=NCCN1CCO ?
Result: 76.7

Ask: Quick one: growth for OC(CNC1CCCC1)Cn1c2ccccc2c2ccccc21 (stereo unspecified) ?
Result: 27.7

Ask: Any idea what its growth is? The compound is COc1ccc(-c2cn[nH]c2-c2cc(OC)c(OC)c(OC)c2)cc1
Result: -17.9
